Target: SARS-CoV-2 receptor binding domain (RBD) (Severe acute respiratory syndrome …, UniProt P0DTC2)
Test: cell-based or functional assay
# IC50 of neutralisation of SARS-CoV-2 pseudovirus (293T_(ACE2) cells) per entry

binder	data_value
C126 (antibody, V domains shown) VH: QVQLQESGPGLVKPSETLSLSCAVSGGSIGSYFWSWIRQPPGKGLEWIGYLHYSGSTNYNPSLKSRVTISVDTSKNQFSLKLSSVTAADTAVYYCARLQWLRGAFDIWGQGTMVTVSS VL: NFMLTQPHSVSESPGKTVTISCTGSSGSIASNYVQWYQQRPGSAPTTVINEDNQRPSGVPDRFSGSIDSSSNSASLTISGLKTEDEADYYCQSYDSSNLVFGGGTKLTVL	> 1000 ng/mL
C134 (antibody, V domains shown) VH: EVQLLESGGGLVQPGGSLRLSCAASGFTFSNYAMSWVRQAPGKGLEWVSAISGSDGSTYYAGSVKGRFTISRDNSKNTLYLQMNSLRAEDTAVYYCAKDPLITGPTYQYFHYWGQGTLVTVSS VL: SYELTQPPSVSVAPGKTARITCGGNNIGSKSVHWYQQKPGQAPVLVIYYDSDRPSGIPERFSGSNSGNTATLTISRVEAGDEAEYHCQVWDSSSDRPGVVFGGGTKLTVL	> 1000 ng/mL

// below: IC50 of neutralisation of SARS-CoV-2 pseudovirus (293T_(ACE2) cells) requested for another binder
// IC50 of neutralisation of SARS-CoV-2 pseudovirus (293T_(ACE2) cells) value for C153 (antibody, V domains shown) VH: EVQLVESGGGLIQPGGSLRLSCAASGFTVSSNYMSWVRQAPGKGLEWVSVIYSGYSTYYVDSVKGRFTISRDNSKNTLYLQMNSLRAEDTAVYYCARVGGAHSGYDGSFDYWGQGTLVTVSS VL: QSALTQPASVSGSPGQSITISCTGTSSDVGSYNLVSWYQQHPGKAPKLMIYEGSKRPSGVSNRFSGSKSGNTASLTISGLQAEDEADYYCCSYAGSSTWVFGGGTKLTVL : 70.7 ng/mL
